Origin of the recorded values: the OPERA property sets (Mansouri et al. 2018)

Consider the following compounds and their measured melting point readings.
Dear colleague, please send the value followed by its unit.

- molecule: "FC(F)(F)C(F)(F)Cl"
  melting point: "-99.4 °C"
- molecule: "C=CCN1CC[C@]23CCCC[C@H]2[C@H]1Cc1ccc(O)cc13"
  melting point: "181 °C"
- molecule: "Nc1ccc(F)cc1"
  melting point: "-0.8 °C"
- molecule: "CCOP(=S)(OCC)Oc1cc(C)nc(N(CC)CC)n1"
  melting point: "15 °C"
- molecule: "Cc1cc(C(C)(C)C)c(O)c(C(C)(C)C)c1"
  melting point: "71 °C"
- molecule: "CCCCCCCCCCOC(C)=O"
  melting point: "-15 °C"
- molecule: "COCCN(C(=O)CCl)c1c(C)cccc1C"
  melting point: "46 °C"
- molecule: "CN1C(=O)CN=C(c2ccccc2F)c2cc([N+](=O)[O-])ccc21"
  melting point: "166 °C"
- molecule: "CC1=C(/C=C/C(C)=C/C=C/C(C)=C/C=C/C=C(C)/C=C/C=C(C)/C=C/C2=C(C)CCCC2(C)C)C(C)(C)CCC1"
  melting point: "183 °C"
- molecule: "CC(=O)Nc1c(C)cccc1C"
  melting point: "183 °C"

Which value of melting point has been reported for "NS(=O)(=O)c1ccc(SCCCCO)s1" in the records?
48.5 °C

Which value of melting point has been reported for "CN(C)CCCN" in the records?
-60 °C

Which value of melting point has been reported for "Ic1cc(I)c(I)c(I)c1" in the records?
148 °C

###

quantity.measured: melting point (°C)
The reply should be a number in °C, with the unit left off.

- molecule: "Cc1ccccc1C(=O)O"
  readout.units: "°C"
  melting point: 104
- molecule: "CCC1(C2=CCCCC2)C(=O)NC(=O)NC1=O"
  readout.units: "°C"
  melting point: 173
- molecule: "CC(=O)c1cccc(Br)c1"
  readout.units: "°C"
  melting point: 7.5
- molecule: "CCc1cc(C)c(C)cc1C"
  readout.units: "°C"
  melting point: -13.5
- molecule: "COc1cc(N)c2c(c1N)C(=O)c1ccccc1C2=O"
  readout.units: "°C"
  melting point: 242

Which value of melting point has been reported for "CN(C)c1nc(N(C)C)nc(N(C)C)n1" in the records?
173

Which value of melting point has been reported for "c1ccc(C2(N3CCCCC3)CCCCC2)cc1" in the records?
46.5

###

quantity.measured: log10 vapour pressure (mmHg)
# respond with the number and nothing more

Reference set (3 entries):
- molecule: "ClCCCCCl"
  quantity.measured: "log10 vapour pressure (mmHg)"
  data.value: 0.616
- molecule: "CCNP(=S)(OC)O/C(C)=C/C(=O)OC(C)C (stereo not drawn)"
  quantity.measured: "log10 vapour pressure (mmHg)"
  data.value: -4.84
- molecule: "C1N2CN3CN1CN(C2)C3"
  quantity.measured: "log10 vapour pressure (mmHg)"
  data.value: -2.4

Which value of log10 vapour pressure (mmHg) has been reported for "CC1CCC1" in the records?
3.17

Which value of log10 vapour pressure (mmHg) has been reported for "CC(C)(C)CC(C)(C)c1ccc(O)cc1" in the records?
-3.32

Which value of log10 vapour pressure (mmHg) has been reported for "O=C(Nc1ccccc1)Nc1ccccc1" in the records?
-5.12
